# Target system: T1, ヒト組織因子経路インヒビター (human TFPI) (human, UniProt P10646 29-304, limits assumed)
# T1 construct: Coated on Maxisorp plates (ELISA) or amine-coupled to a CM5 chip (Biacore); also called ヒトTFPI; hTFPI
# T1 sequence (looked up): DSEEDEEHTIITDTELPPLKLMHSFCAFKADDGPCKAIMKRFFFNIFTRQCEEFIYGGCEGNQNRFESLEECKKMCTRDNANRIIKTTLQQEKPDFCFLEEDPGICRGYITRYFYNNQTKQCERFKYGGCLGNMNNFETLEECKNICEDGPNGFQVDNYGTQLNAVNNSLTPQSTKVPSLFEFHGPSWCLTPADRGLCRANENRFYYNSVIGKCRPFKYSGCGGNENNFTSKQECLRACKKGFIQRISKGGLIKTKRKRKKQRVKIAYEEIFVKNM
# Assay procedure: ELISA, Fab in bacterial lysate on human TFPI-coated plate
Experimental endpoint: binding result

Binder	Experimental endpoint	Reading
TP-2A2 (Fab, V domains shown, Human Fab (HuCal Gold), made in E. coli TG1) VH: QVQLVESGGGLVQPGGSLRLSCAASGFTFSNNAMNWVRQAPGKGLEWVSTISYDGSNTYYADSVKGRFTISRDNSKNTLYLQMNSLRAEDTAVYYCARQAGGWTYSYTDVWGQGTLVTVSS VL: DIELTQPPSVSVAPGQTARISCSGDNIRTYYVHWYQQKPGQAPVVVIYGDSKRPSGIPERFSGSNSGNTATLTISGTQAEDEADYYCQSYDSEADSEVFGGGTKLTVLG	binding result	binds
TP-2G9 (Fab, V domains shown, Human Fab (HuCal Gold), made in E. coli TG1) VH: QVQLVESGGGLVQPGGSLRLSCAASGFTFNSYAMTWVRQAPGKGLEWVSAIKSDGSNTYYADSVKGRFTISRDNSKNTLYLQMNSLRAEDTAVYYCARNDSGWFDVWGQGTLVTVSS VL: DIALTQPASVSGSPGQSITISCTGTSSDLGGFNTVSWYQQHPGKAPKLMIYSVSSRPSGVSNRFSGSKSGNTASLTISGLQAEDEADYYCQSYDLNNLVFGGGTKLTVLG	binding result	binds
TP-2B9 (Fab, V domains shown, Human Fab (HuCal Gold), made in E. coli TG1) VH: QVQLQQSGPGLVKPSQTLSLTCAISGDSVSSNSAAWGWIRQSPGRGLEWLGMIYHRSKWYNDYAVSVKSRITINPDTSKNQFSLQLNSVTPEDTAVYYCARYSSIGHMDYWGQGTLVTVSS VL: DIQMTQSPSSLSASVGDRVTITCRASQSIRSYLAWYQQKPGKAPKLLIYKASNLQSGVPSRFSGSGSGTDFTLTISSLQPEDFAVYYCHQYSDSPVTFGQGTKVEIKR	binding result	binds
